# TARGET_OR_TEST_SYSTEM: T1, cynomolgus CD38 ECD (cynomolgus, UniProt Q5VAN0 44-301, biotinylated on the AviTag during preparation)
# T1 construct: also called Cyno-CD38; Avi-Cyno CD38 ECD
# ASSAY_EXPLANATION: ELISA: plate coated with 1 ug/ml recombinant cynomolgus CD38 ECD, serially diluted antibody, OD450
MEASURED_PARAMETER: EC50 (read off the curve)

{"BINDER": "23D1 (antibody, human IgG1, kappa, V domains shown, Rabbit-human chimeric anti-CD38: rabbit VH and VL on human IgG1 and kappa constant regions) VH: QELVESGGGLFQPGGSLALTCKASGFSLSNIYVMCWVRQAPGKGLEWIACIGTGSGDTDYATWAKGRFTISKTSSTTVTLQMTSLTAADTATYFCARDPGAGTWNLWGPGTLVTVSS VL: DIVMTQTPSSVEAAVGGTVTIKCQASQTIGSRLAWYQQKPGQPPKLLIYSASTLASGVSSRFKGSGSGTQFTLTISDLDSADAATYYCQSYYYTSTSYPNAFGGGTEVVVKR", "EC50 (read off the curve)": "~0.06 nM"}
{"BINDER": "17E9 (antibody, human IgG1, kappa, V domains shown, Rabbit-human chimeric anti-CD38: rabbit VH and VL on human IgG1 and kappa constant regions) VH: QSVEESGGRLVTPGTPLTLTCTASGFSLSRYYVTWVRQAPGKGLEWIGIIYISGTTYYATWAKGRFTISKSATTVDLRIASPTTEDTATYFCAAAWPVGTYVLPLWGPGTLVTVSS VL: AAVLTQTPSPVSAAVGGTVTIKCQSSQSVVNANNLSWYQQKPGQPPKLLIYLASTLASGVPSRFSGSGSGTQFTLTISSVQSDDAATYYCLGVYDDDGDNAFGGGTEVVVKR", "EC50 (read off the curve)": "~0.06 nM"}
{"BINDER": "20B5 (antibody, human IgG1, kappa, V domains shown, Rabbit-human chimeric anti-CD38: rabbit VH and VL on human IgG1 and kappa constant regions) VH: QSLEESGGDLVKPGASLTLTCTASGFSFSSRYWICWVRQAPGKGLEWIACIVAGTTNTYYASWAKGRFTISKTSSTTVTLQMTSLTAADTATYFCAGDPRTGSNVGYFNLWGPGTLVTVSS VL: AQVLTQTPSPVSAAVGGTVTINCQASQSVYNNNYLAWFQQKPGQPPKLLIYSASTLASGVPSRFKGSGSGTQFTLTISEVQSDDAATYYCQAYYSGGIYAFGGGTEVVVKR", "EC50 (read off the curve)": "~0.06 nM"}
{"BINDER": "21G2 (antibody, human IgG1, kappa, V domains shown, Rabbit-human chimeric anti-CD38: rabbit VH and VL on human IgG1 and kappa constant regions) VH: QSVEESGGRLVTPGTPLTLTCTVSGFSLSNYGVSWVRQAPGKGLEWIGYILTSGGTYYANWAQGRFTISKTSTTVDLKITSPTTEDTATYFCGRPKDSDSSAFVSLWGPGTLVTVSS VL: DVVMTQTPASVSEPVGGTVTINCQASESIYSNLAWYQQKPGQPPKLLIYKASTLASGVSSRFKGSGSGTEFTLTISDLESADAATYYCQANHMIVIYGNGFGGGTEVVVKR", "EC50 (read off the curve)": "~0.06 nM"}
{"BINDER": "23B3 (antibody, human IgG1, kappa, V domains shown, Rabbit-human chimeric anti-CD38: rabbit VH and VL on human IgG1 and kappa constant regions) VH: QSVEESGGRLVTPGTPLTLTCTVSGFSLSNYDMTWVRQAPGRGLEWIGVISSGDNTNYARWAKGRFTISKTSSTTVDLKITSPTTEDTATYFCARILYNKGRYYFTFWGPGTLVTVSS VL: AQVLTQTPSSVSAAVGGTVTINCQSSQSIANSDELAWYQQKPGQPPKLLIYDASTLAPGVPSRFSGSGSGTQFTLTISGVQSDDAATYYCQGTVYDSGWYAAFGGGTEVVVKR", "EC50 (read off the curve)": "~0.06 nM"}
{"BINDER": "25C3 (antibody, human IgG1, kappa, V domains shown, Rabbit-human chimeric anti-CD38: rabbit VH and VL on human IgG1 and kappa constant regions) VH: QEQLEESGGDLVKPGASLTLTCKASGFSFSSAYDMCWVRQAPGKGLEWVACLYTVSSDSIYYASWAKGRFTISRTSSTTVTLQMTSLTAADTATYFCARDGDYFALWGPGTLVTVSS VL: DIVMTHTPASVEAAVGGTVTIKCQASQNIGGYLSWYQQKPGQRPKLLIYRASTLASGVPSRFKGSGSGTQFTLTISDLESADAATYYCQTYYYSGSSRYWAFGGGTEVVVKR", "EC50 (read off the curve)": "~0.06 nM"}
{"BINDER": "27F6 (antibody, human IgG1, kappa, V domains shown, Rabbit-human chimeric anti-CD38: rabbit VH and VL on human IgG1 and kappa constant regions) VH: QSLEESGGGLVKPGASLTLTCKASGFSFSSGCDMCWVRQAPGKGLEWISCIYTGSGSTYYANWAKGRFTISRTSSTTVTLQMTSLTAADTATYFCAGDSDYLGLWGPGTLVTVSS VL: DIVMTQTPSSVEAAVGGTVTIKCQASQNIGNYLAWYQQKPGQPPKVLIYRASTLASGVPSRFKGSGSGTHFTLTISDLESADAATYYCQSYYYTTDDNYRSWAFGGGTEVVVKR", "EC50 (read off the curve)": "~0.06 nM"}
{"BINDER": "25E4 (antibody, human IgG1, kappa, V domains shown, Rabbit-human chimeric anti-CD38: rabbit VH and VL on human IgG1 and kappa constant regions) VH: QSLEESGGRLVTPGTPLTLTCTVSGIDLSIYTMAWVRQAPGKGLEYIGIISGYGTTYYATWAKGRFIVSKTSTTVDLKITSPTTEDTATYFCVRTTVQSTDLWGPGTLVTVSS VL: DIVMTQTPASVEAAVGGTVTINCQASQNIYSNLAWYQQKPGQRPKLLIYKASTLASGVSSRFKGSGSGTEFTLTISDLASADAATYYCQSYYGATSSSFGYGFGGGTEVVVKR", "EC50 (read off the curve)": "~0.06 nM"}
{"BINDER": "1E2 (antibody, human IgG1, kappa, V domains shown, Rabbit-human chimeric anti-CD38: rabbit VH and VL on human IgG1 and kappa constant regions) VH: QSVEESGGRLVTPGTPLTLTCTVSGIDLNSYAMGWVRQAPGKGLKYIGIMTSGGNIYYANWAKGRFTISKTSTTVDLRITSPTTEDTATYFCAREREFYGGGTSGSRLDLWGQGTLVTVSS VL: AYDMTQTPASVEAAVGGTVTIKCQASQSIYNFLNWYQQKPGQPPKLLIYYASTLAFGVPSRFKGSGSGTEYTLTISGVESADAATYYCQQGWNSGILDNSFGGGTEVVVKR", "EC50 (read off the curve)": "~0.06 nM"}

Short answer for 18E4 (antibody, human IgG1, kappa, V domains shown, Rabbit-human chimeric anti-CD38: rabbit VH and VL on human IgG1 and kappa constant regions) VH: QSLEESGGDLVKPGASLTLTCTASGFSFNNYWICWIRQAPGKGLEWVACIYSPSGDIKYYANWAKGRFTVSKTSSTTVTLQMTSLTGADTATYFCARELSGSSYEGYFESWGPGTLVTVSS VL: AQVLTQTPSSVSAAVGGTVTINCQCSQSVYGHNWLAWYQHKPGQPPKLLMYRASNLASGVPSRFKGSGSGSQFTLTIGEVQSDDAATYYCQGYYNGGSYAFGGGTEVVVRR : EC50 (read off the curve) was ~0.06 nM
